Tested on: LXFL 529
Assay: NCI tumour cell line growth inhibition, 48 h
The source made the active and inactive calls. Cut-off read from the data, not from the text of the source: active = GI50 up to about 1.1 µM and inactive = higher.

>  <compound>
Cc1ccc(S(=O)(=O)OCC23CCC(CC2)C2CC23)cc1 (stereo not given)

>  <GI50>
68.2 µM (inactive)

$$$$
>  <compound>
N=C(N)NS(=O)(=O)c1ccc(Nc2c3ccccc3nc3c(C(=O)Nc4ccc(S(N)(=O)=O)cc4)cccc23)cc1

>  <GI50>
26.8 µM (inactive)

$$$$
>  <compound>
COC(=O)C1C=CCON2CCc3c(n(C)c4ccccc34)C12 (stereo not given)

>  <GI50>
> 100 µM (inactive)

$$$$
>  <compound>
CCCCOC(=O)NC(=O)c1cn(C2CCCCC2)c(=O)[nH]c1=O

>  <GI50>
29 µM (inactive)

$$$$
>  <compound>
CCCCCCCCCCCCCC(=O)OC1C(O)C(CO)OC(OC)C1NC(=O)N(CCCl)N=O (stereo not given)

>  <GI50>
> 100 µM (inactive)

$$$$

Entry source: ChEMBL document CHEMBL1201862
